Tested On: human 5-HT1A receptors (Homo sapiens)
Construct: expressed in transfected cells; host or cells: CHO cells
Sequence (P08908 whole entry): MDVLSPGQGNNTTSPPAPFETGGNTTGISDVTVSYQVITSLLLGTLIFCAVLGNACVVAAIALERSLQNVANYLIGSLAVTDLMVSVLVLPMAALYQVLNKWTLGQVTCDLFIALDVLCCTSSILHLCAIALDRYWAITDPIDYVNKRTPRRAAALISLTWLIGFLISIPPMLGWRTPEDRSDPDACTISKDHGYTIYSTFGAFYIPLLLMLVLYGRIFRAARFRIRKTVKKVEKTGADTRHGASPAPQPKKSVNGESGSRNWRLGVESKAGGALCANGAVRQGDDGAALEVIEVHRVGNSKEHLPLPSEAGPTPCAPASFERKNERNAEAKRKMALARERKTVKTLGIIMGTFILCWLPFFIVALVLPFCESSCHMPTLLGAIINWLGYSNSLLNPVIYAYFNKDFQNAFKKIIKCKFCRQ
Test Summary: [3H] 8-OH-DPAT displacement from the 5-HT1A serotonin receptor (CHO cells)
Assay type: binding
Measurement Setup: @ 1000 nM; printed in the 5-HT1A Ki column
For each of the compounds below, state its inhibition at 1 µM.
Numbers only, in %.

Give inhibition at 1 µM for all compounds that follow.
1. O=c1c2cc(Cl)ccc2ncn1CCCN1CC=C(c2c[nH]c3ccccc23)CC1
2. O=c1c2ccccc2ncn1CCN1CCC(c2c[nH]c3ccccc23)CC1

1. 7
2. 42

Give inhibition at 1 µM for all compounds that follow.
1. Cn1cc(C2CCN(CCn3cnc4ccccc4c3=O)CC2)c2ccccc21
2. O=c1c2ccccc2nnn1CCCN1CCC(c2c[nH]c3ccccc23)CC1
3. O=c1c2cc(F)ccc2ncn1CCN1CC=C(c2c[nH]c3ccccc23)CC1

[43, 49, 44]

Give inhibition at 1 µM for all compounds that follow.
1. O=c1c2cc(Cl)ccc2ncn1CCCN1CCC(c2c[nH]c3ccccc23)CC1
2. O=c1c2cc(Cl)cc(Br)c2ncn1CCCN1CC=C(c2c[nH]c3ccccc23)CC1
3. COc1cc2ncn(CCCN3CC=C(c4c[nH]c5ccc(F)cc45)CC3)c(=O)c2cc1OC

26
4
31
